The reported numbers originate from PubChem BioAssay (NCI).

- Test system: RXF 393 renal
- Test Summary: NCI-60 one-dose screen, 48 h (100 = growth as untreated, 0 = no growth, -100 = all killed)
- Reported Conditions: 10 µM unless noted
Compounds without any hit were thinned out: in the full panel of roughly 83,000, 20% have a hit.
Items are presented alongside their recorded growth.
Report the figure in % without appending any unit label.

// worked examples, growth included
Compound: Cc1cc(N(CCCNc2ccnc3cc(Cl)ccc23)Cc2ccco2)nc(Cl)n1
Study Target: RXF 393 renal
growth, %: 71.1

Compound: O=[N+]([O-])c1cccc(/C=N\Nc2ccccc2)c1
Study Target: RXF 393 renal
growth, %: 101

Compound: CC(=O)O[C@H]1CC[C@@]2(C)[C@@H](CC[C@@H]3[C@@H]2CC(=O)[C@@]2(C)[C@H]3C[C@@H](C3CCCC3=O)[C@@H]2C(C)=O)C1 (some centres undefined)
Study Target: RXF 393 renal
growth, %: 132

Qu. Any idea what its growth is? The compound is COc1cccc(-c2nn(-c3ccccc3)cc2-c2ccnc(NCCCNS(=O)(=O)c3ccc(Br)cc3)c2)c1
Ans. 44.7
